Measured GI50 accompanies every entry in the list below.
- Test system: DU-145
- PROTOCOL_TEXT: NCI tumour cell line growth inhibition, 48 h
Activity calls are given as the source filed them. No stated cut-off is given here; in the data, active = GI50 up to about 1.1 µM and inactive = higher.

Some solved entries appear below for comparison.
{"COMPOUND": "CCOC(=O)c1cccc(/N=N/c2nc[nH]c2/C=C/C(=O)OC)c1", "ASSAYED_SYSTEM": "DU-145", "GI50": "37.4 µM (inactive)"}
{"COMPOUND": "Cc1ccc(-c2c(C#N)c(S)n(NS(=O)(=O)c3ccccc3)c(=O)c2C#N)cc1", "ASSAYED_SYSTEM": "DU-145", "GI50": "53.3 µM (inactive)"}
{"COMPOUND": "CCOC(=O)c1csc(C(CSCc2ccc(OC)cc2)N2C(=O)c3ccccc3C2=O)n1 (stereo not drawn)", "ASSAYED_SYSTEM": "DU-145", "GI50": "> 100 µM (inactive)"}
{"COMPOUND": "CC12CCC(C1)C(C)(C)C2OC(=O)c1ccccc1N (stereo not drawn)", "ASSAYED_SYSTEM": "DU-145", "GI50": "16.4 µM (inactive)"}
{"COMPOUND": "C(/c1ccco1)=c1/nc(-c2ccccc2)n2c1nc1ccccc12", "ASSAYED_SYSTEM": "DU-145", "GI50": "> 100 µM (inactive)"}

Summary: CC1=C(C(=O)OCc2ccncc2)C(C2=C(C)SCCS2)C(C(=O)OCc2ccncc2)=C(C)N1 , DU-145, GI50 = 29.4 µM (inactive)

Summary: S=C1CC(c2ccc(Cl)cc2)Sc2ccccc2N1 (stereo not drawn) , DU-145, GI50 = 51.4 µM (inactive)

Summary: CCOC(=O)CCCn1cc(C(=O)OC)nn1 , DU-145, GI50 = > 100 µM (inactive)

Summary: CCCN1C(=O)CN(S(=O)(=O)c2ccc(Cl)cc2)C1=O , DU-145, GI50 = > 100 µM (inactive)

Summary: N=C(N)NS(=O)(=O)c1ccc(NNc2c3ccccc3nc3c(C(=O)Nc4ccc(S(=O)(=O)Nc5ncccn5)cc4)cccc23)cc1 , DU-145, GI50 = 60.1 µM (inactive)

Summary: COc1cc(C2SCC(=O)N2Cc2ccccc2)cc(OC)c1OC (stereo not drawn) , DU-145, GI50 = 22.1 µM (inactive)

Summary: O=C(/C=C/c1ccc(O)c(O)c1)NC(CO)C(=O)O (stereo not drawn) , DU-145, GI50 = > 100 µM (inactive)

Summary: N=c1oc2ccc([N+](=O)[O-])cc2cc1C(=O)Nc1ccccn1 , DU-145, GI50 = 60.4 µM (inactive)

====

- Test system: SN12C
- PROTOCOL_TEXT: NCI tumour cell line growth inhibition, 48 h
Active and inactive are the calls of the source. Rule as the data show it: active = GI50 up to about 1.1 µM and inactive = higher.
Valid outcomes are listed here; reply with one: active, inactive

Examples from the recorded data:
{"MOLECULE": "CCOC(=O)C1(Cc2ccccc2)C=CN(C(=O)c2ccccc2)C=C1", "ASSAYED_SYSTEM": "SN12C", "LABEL_VALUE": "inactive"}
{"MOLECULE": "C=C1CC(OC)(C(OC)C(=O)N(C)[C@H]2OCO[C@H]3C2O[C@H](C[C@@H](COC)OC)C(C)(C)C3OC)O[C@H](C)[C@@H]1C (stereo partly specified)", "ASSAYED_SYSTEM": "SN12C", "LABEL_VALUE": "inactive"}
{"MOLECULE": "CCc1cccc(C(C)C)c1NC(=O)C(=O)C(Cc1nc2ccccc2nc1O)C(=O)OC (stereo unspecified)", "ASSAYED_SYSTEM": "SN12C", "LABEL_VALUE": "inactive"}
{"MOLECULE": "CCC1=NC(N/N=C/c2ccco2)=N/C1=C\\c1ccco1", "ASSAYED_SYSTEM": "SN12C", "LABEL_VALUE": "inactive"}
{"MOLECULE": "CC(=O)OCc1cc(OC(C)=O)cnc1COC(C)=O", "ASSAYED_SYSTEM": "SN12C", "LABEL_VALUE": "inactive"}
{"MOLECULE": "CC(C)c1ccccc1SC1CC(=O)CC(Sc2ccccc2C(C)C)C12O[C@H](c1ccccc1)[C@@H](c1ccccc1)O2 (stereo partly specified)", "ASSAYED_SYSTEM": "SN12C", "LABEL_VALUE": "inactive"}

**Q:** Please share the test call associated with O=C(OCc1ccccc1)c1nc2ccccc2n1S(=O)(=O)c1ccccc1 .
**A:** inactive

**Q:** Please share the test call associated with COc1cc(C2SCC(=O)N2Cc2ccccc2)cc(OC)c1OC (stereo unspecified) .
**A:** inactive
